Experiment summary: mRNA encapsulation efficiency of lipid nanoparticles
Format: physicochemical
Settings: LNP with cationic lipid CL-C
Outcome: fulfilled for EE of at least 90%; not fulfilled for anything lower.

Is reported EE greater than or equal to 90% here: CCCCCCCCOC(=O)CCCCCCCC(=O)OC(COC(=O)CCCCCCC(=O)OC(CCCCCCCC)CCCCCCCC)COP(=O)(O)OCCN(C)C (stereo not drawn) not fulfilled

Same thing, different compound: CCCCCCCCC(CCCCCCCC)OC(=O)CCCCCCC(=O)OC[C@@H](COP(=O)(O)OCCN(C)C)OC(=O)CCCCCCC(=O)OC(CCCCCCCC)CCCCCCCC fulfilled

Quick one: CCCCCCCCC(CCCCCCCC)OC(=O)CCCCCCC(=O)OCC(COP(=O)(O)OCCN(C)CCCO)OC(=O)CCCCCCC(=O)OC(CCCCCCCC)CCCCCCCC (stereo not drawn) fulfilled

Please do the same for CCCCCCCCC(CCCCCCCC)OC(=O)CCCCCCC(=O)OCC(COP(=O)(O)OCC[N+](C)(C)C)OC(=O)CCCCCCC(=O)OC(CCCCCCCC)CCCCCCCC (stereo not drawn) as well. not fulfilled

Also CCCCCCCCC(CCCCC)COC(=O)CCC(=O)OCC(COP(=O)(O)OCCN(C)C)OC(=O)CCC(=O)OCC(CCCCC)CCCCCCCC (stereo not drawn) ? not fulfilled

Then this compound: CCCCCCCCC(CCCCCCCC)C(=O)OCCCCCC(=O)OCC(COP(=O)(O)OCCN(C)C)OC(=O)CCCCCOC(=O)C(CCCCCCCC)CCCCCCCC (stereo not drawn) not fulfilled

Here is the next compound: CCCCCCCCC(CCCCCCCC)OC(=O)CCCCCCC(=O)OCC(COP(=O)(O)OCCN(C)CCO)OC(=O)CCCCCCC(=O)OC(CCCCCCCC)CCCCCCCC (stereo not drawn) fulfilled

Queued: CC(C)CCCCOC(=O)CCCCCCC(=O)OCC(COP(=O)(O)OCCN(C)C)OC(=O)CCCCCCC(=O)OCCCCC(C)C (stereo not drawn) not fulfilled

Same for CCCCCCCCC(CCCCCCCC)OC(=O)CCCCCCC(=O)OCC(COP(=O)(O)OCCN)OC(=O)CCCCCCC(=O)OC(CCCCCCCC)CCCCCCCC (stereo not drawn) fulfilled

###

Provide the recorded Size for the entries that follow.
Experiment summary: Dynamic light scattering of lipid nanoparticles (size, PDI)
Assay type: physicochemical
Settings: LNP with cationic lipid CL-A; hEPO mRNA; 40:30:28.5:1.5
Answer in nm, number only, no unit symbol.

Which Size reading was recorded for the compound CC(C)CCCCOC(=O)CCCCCCC(=O)OCC(COP(=O)(O)OCCN(C)C)OC(=O)CCCCCCC(=O)OCCCCC(C)C (stereo not shown) ? 116

Try this compound too: CCCCCCCCOC(=O)CCCCCCCC(=O)OC(COC(=O)CCCCCCC(=O)OC(CCCCCCCC)CCCCCCCC)COP(=O)(O)OCCN(C)C (stereo not shown) 173

Try this compound next: CCCCCCCCC(CCCCCCCC)C(=O)OCCCCCC(=O)OCC(COP(=O)(O)OCCN(C)C)OC(=O)CCCCCOC(=O)C(CCCCCCCC)CCCCCCCC (stereo not shown) 137

And the next one, CCCCCCCCC(CCCCCCCC)C(=O)OCCCCCCC(=O)OCC(COP(=O)(O)OCCN(C)C)OC(=O)CCCCCCOC(=O)C(CCCCCCCC)CCCCCCCC (stereo not shown) ? 155

Now this one: CCCCCCCCCC(CCCCCCCCC)C(=O)OCC(COP(=O)(O)OCCN)OC(=O)C(CCCCCCCCC)CCCCCCCCC (stereo not shown) 137

Follow-up entry: CCCCCCCCC(CCCCCCCC)OC(=O)CCCCCCC(=O)OCC(COP(=O)(O)OCCN(C)CCO)OC(=O)CCCCCCC(=O)OC(CCCCCCCC)CCCCCCCC (stereo not shown) 137

Try this compound too: CCCCCCCCC(CCCCC)COC(=O)CCC(=O)OCC(COP(=O)(O)OCCN(C)C)OC(=O)CCC(=O)OCC(CCCCC)CCCCCCCC (stereo not shown) 171

What do we get for CCCCCCCCC(CCCCCCCC)OC(=O)CCCCCCC(=O)OCC(COP(=O)(O)OCCN(C)C)OC(=O)CCCCCCC(=O)OC(CCCCCCCC)CCCCCCCC (stereo not shown) ? 160

Then what about the compound CCCCCCCCC(CCCCC)COC(=O)CCC(=O)OCC(COP(=O)(O)OCCN)OC(=O)CCC(=O)OCC(CCCCC)CCCCCCCC (stereo not shown) [Compound 4] ? 125

Let us now turn to CCCCCCCCC(CCCCCCCC)OC(=O)CCCCCCC(=O)OCC(COP(=O)(O)OCC[N+](C)(C)C)OC(=O)CCCCCCC(=O)OC(CCCCCCCC)CCCCCCCC (stereo not shown) 160

Thanks! And CC(C)CCCCOC(=O)CCCCCCC(=O)OCC(COP(=O)(O)OCCN)OC(=O)CCCCCCC(=O)OCCCCC(C)C (stereo not shown) ? 137

Thanks! And CCCCCCCCC(CCCCC)COC(=O)CCC(=O)OCC(COP(=O)(O)OCCN)OC(=O)CCC(=O)OCC(CCCCC)CCCCCCCC (stereo not shown) [Compound 5] ? 121

Next entry: CCCCCCCCC(CCCCCCCC)OC(=O)CCCCCCC(=O)OCC(COP(=O)(O)OCCN)OC(=O)CCCCCCC(=O)OC(CCCCCCCC)CCCCCCCC (stereo not shown) 159
